Cited source: patent EP0093484A2

Known MIC of a selection of compounds
# Test system: Past. haemolytica PA5
# test.name: Veterinary bacteria, MIC by two fold serial dilution in agar
# condition.notes: Mannheimia haemolytica, PA5, 18 h
quantity.measured: MIC (µg/mL)

INSERT INTO measurements (compound, readout_value) VALUES
  ('CC(=CC(=O)OCc1ccc(S(C)(=O)=O)cc1)CC1OCC(CC2OC2C(C)C(C)O)C(O)C1O (stereo not drawn) [Example 3, p-Methylsulphonylbenzyl monate A]', 5),
  ('CC(=CC(=O)OCc1ccc([S+](C)[O-])cc1)CC1OCC(CC2OC2C(C)C(C)O)C(O)C1O (stereo not drawn) [Example 2, p- Methylsulphinylbenzyl monate A]', 5),
  ('CC(=CC(=O)OCc1cccc([S+](C)[O-])c1)CC1OCC(CC2OC2C(C)C(C)O)C(O)C1O (stereo not drawn) [Example 6, m-Methylsulfinylbenzyl monate A]', 80),
  ('CC(=CC(=O)OCc1cccc(S(C)(=O)=O)c1)CC1OCC(CC2OC2C(C)C(C)O)C(O)C1O (stereo not drawn) [Example 7, m-Methylsulfonylbenzyl monate A]', 10),
  ('CC(=CC(=O)OC(C)c1ccc(S(C)(=O)=O)cc1)CC1OCC(CC2OC2C(C)C(C)O)C(O)C1O (stereo not drawn) [Example 9, 1-(p-Methylsulfonylphenyl)ethyl monate A]', 40),
  ('CSc1ccc(COC(=O)C=C(C)CC2OCC(CC3OC3C(C)C(C)O)C(O)C2O)cc1 (stereo not drawn) [Example 1, p-Methylthiobenzyl monate A]', 0.312);

----------
# System: M. suipneumoniae TAM 6N
# test.name: Anti-mycoplasmal activity, MIC in Friis broth agarose
# Assay type: cell-based
# condition.notes: Mesomycoplasma hyopneumoniae, TAM6N, 144 h, Friis broth solidified with 0.9% agarose, 6 days incubation at 37°C, read-out: MIC
Known MIC of a selection of compounds
quantity.measured: MIC (µg/mL)

INSERT INTO measurements (compound, readout_value) VALUES
  ('CC(=CC(=O)OC(C)c1ccc(S(C)(=O)=O)cc1)CC1OCC(CC2OC2C(C)C(C)O)C(O)C1O (stereo not drawn) [Example 9, 1-(p-Methylsulfonylphenyl)ethyl monate A]', 1),
  ('CC(=CC(=O)OCc1ccc(S(C)(=O)=O)cc1)CC1OCC(CC2OC2C(C)C(C)O)C(O)C1O (stereo not drawn) [Example 3, p-Methylsulphonylbenzyl monate A]', 0.25),
  ('CSc1ccc(COC(=O)C=C(C)CC2OCC(CC3OC3C(C)C(C)O)C(O)C2O)cc1 (stereo not drawn) [Example 1, p-Methylthiobenzyl monate A]', 0.5),
  ('CC(=CC(=O)OCc1cccc([S+](C)[O-])c1)CC1OCC(CC2OC2C(C)C(C)O)C(O)C1O (stereo not drawn) [Example 6, m-Methylsulfinylbenzyl monate A]', 10),
  ('CC(=CC(=O)OCc1cccc(S(C)(=O)=O)c1)CC1OCC(CC2OC2C(C)C(C)O)C(O)C1O (stereo not drawn) [Example 7, m-Methylsulfonylbenzyl monate A]', 1),
  ('CC(=CC(=O)OCc1ccc([S+](C)[O-])cc1)CC1OCC(CC2OC2C(C)C(C)O)C(O)C1O (stereo not drawn) [Example 2, p- Methylsulphinylbenzyl monate A]', 0.5);

----------
Known MIC of a selection of compounds
# System: Neisseria catarrhalis 1502
# test.name: Human bacteria, MIC by serial dilution in nutrient agar
# Type: cell-based
# condition.notes: nutrient agar with 5% chocolated horse blood, 18 hours at 37°C, read-out: MIC
quantity.measured: MIC

INSERT INTO measurements (compound, readout_value) VALUES
  ('CC(=CC(=O)OCc1ccc([S+](C)[O-])cc1)CC1OCC(CC2OC2C(C)C(C)O)C(O)C1O (stereo not drawn) [Example 2, p- Methylsulphinylbenzyl monate A]', '0.5 µg/mL'),
  ('CC(=CC(=O)OCc1cccc(S(C)(=O)=O)c1)CC1OCC(CC2OC2C(C)C(C)O)C(O)C1O (stereo not drawn) [Example 7, m-Methylsulfonylbenzyl monate A]', '1 µg/mL'),
  ('CC(=CC(=O)OCc1ccc(S(C)(=O)=O)cc1)CC1OCC(CC2OC2C(C)C(C)O)C(O)C1O (stereo not drawn) [Example 3, p-Methylsulphonylbenzyl monate A]', '0.25 µg/mL'),
  ('CC(=CC(=O)OC(C)c1ccc(S(C)(=O)=O)cc1)CC1OCC(CC2OC2C(C)C(C)O)C(O)C1O (stereo not drawn) [Example 9, 1-(p-Methylsulfonylphenyl)ethyl monate A]', '2 µg/mL'),
  ('CC(=CC(=O)OCc1cccc([S+](C)[O-])c1)CC1OCC(CC2OC2C(C)C(C)O)C(O)C1O (stereo not drawn) [Example 6, m-Methylsulfinylbenzyl monate A]', '12.5 µg/mL'),
  ('CSc1ccc(COC(=O)C=C(C)CC2OCC(CC3OC3C(C)C(C)O)C(O)C2O)cc1 (stereo not drawn) [Example 1, p-Methylthiobenzyl monate A]', '0.25 µg/mL');

----------
# System: Staph. aureus Russell
# test.name: Human bacteria, MIC by serial dilution in nutrient agar
# Format: cell-based
# condition.notes: Staphylococcus aureus, nutrient agar with 5% chocolated horse blood, 18 hours at 37°C, read-out: MIC
// returns Not fulfilled unless MIC is strictly below 5 µg/mL, in which case Fulfilled

INSERT INTO assay_data (compound, classification) VALUES
  ('CC(=CC(=O)OCc1cccc([S+](C)[O-])c1)CC1OCC(CC2OC2C(C)C(C)O)C(O)C1O (stereo not drawn) [Example 6, m-Methylsulfinylbenzyl monate A]', 'Not fulfilled'),
  ('CC(=CC(=O)OCc1ccc([S+](C)[O-])cc1)CC1OCC(CC2OC2C(C)C(C)O)C(O)C1O (stereo not drawn) [Example 2, p- Methylsulphinylbenzyl monate A]', 'Fulfilled'),
  ('CC(=CC(=O)OCc1ccc(S(C)(=O)=O)cc1)CC1OCC(CC2OC2C(C)C(C)O)C(O)C1O (stereo not drawn) [Example 3, p-Methylsulphonylbenzyl monate A]', 'Fulfilled'),
  ('CSc1ccc(COC(=O)C=C(C)CC2OCC(CC3OC3C(C)C(C)O)C(O)C2O)cc1 (stereo not drawn) [Example 1, p-Methylthiobenzyl monate A]', 'Fulfilled'),
  ('CC(=CC(=O)OC(C)c1ccc(S(C)(=O)=O)cc1)CC1OCC(CC2OC2C(C)C(C)O)C(O)C1O (stereo not drawn) [Example 9, 1-(p-Methylsulfonylphenyl)ethyl monate A]', 'Not fulfilled');

----------
Known MIC of a selection of molecules
# Tested on: Corynebacterium pyogenes CY1
# test.name: Veterinary bacteria, MIC by two fold serial dilution in agar
# condition.notes: CY1, 18 h
quantity.measured: MIC

INSERT INTO assay_data (molecule, readout_value) VALUES
  ('CC(=CC(=O)OCc1cccc(S(C)(=O)=O)c1)CC1OCC(CC2OC2C(C)C(C)O)C(O)C1O (stereo not drawn) [Example 7, m-Methylsulfonylbenzyl monate A]', '> 80 µg/mL'),
  ('CC(=CC(=O)OC(C)c1ccc(S(C)(=O)=O)cc1)CC1OCC(CC2OC2C(C)C(C)O)C(O)C1O (stereo not drawn) [Example 9, 1-(p-Methylsulfonylphenyl)ethyl monate A]', '> 80 µg/mL'),
  ('CC(=CC(=O)OCc1ccc(S(C)(=O)=O)cc1)CC1OCC(CC2OC2C(C)C(C)O)C(O)C1O (stereo not drawn) [Example 3, p-Methylsulphonylbenzyl monate A]', '> 80 µg/mL');

----------
# Test system: Strep. agalactiae 2788-B
# test.name: Human bacteria, MIC by serial dilution in nutrient agar
# Format: cell-based
# condition.notes: Streptococcus agalactiae, nutrient agar with 5% chocolated horse blood, 18 hours at 37°C, read-out: MIC
quantity.measured: MIC

INSERT INTO assay_data (molecule, quantity_measured, readout_value) VALUES
  ('CC(=CC(=O)OC(C)c1ccc(S(C)(=O)=O)cc1)CC1OCC(CC2OC2C(C)C(C)O)C(O)C1O (stereo not drawn) [Example 9, 1-(p-Methylsulfonylphenyl)ethyl monate A]', 'MIC', '8 µg/mL'),
  ('CC(=CC(=O)OCc1ccc([S+](C)[O-])cc1)CC1OCC(CC2OC2C(C)C(C)O)C(O)C1O (stereo not drawn) [Example 2, p- Methylsulphinylbenzyl monate A]', 'MIC', '1 µg/mL'),
  ('CSc1ccc(COC(=O)C=C(C)CC2OCC(CC3OC3C(C)C(C)O)C(O)C2O)cc1 (stereo not drawn) [Example 1, p-Methylthiobenzyl monate A]', 'MIC', '1 µg/mL'),
  ('CC(=CC(=O)OCc1ccc(S(C)(=O)=O)cc1)CC1OCC(CC2OC2C(C)C(C)O)C(O)C1O (stereo not drawn) [Example 3, p-Methylsulphonylbenzyl monate A]', 'MIC', '0.5 µg/mL'),
  ('CC(=CC(=O)OCc1cccc([S+](C)[O-])c1)CC1OCC(CC2OC2C(C)C(C)O)C(O)C1O (stereo not drawn) [Example 6, m-Methylsulfinylbenzyl monate A]', 'MIC', '25 µg/mL'),
  ('CC(=CC(=O)OCc1cccc(S(C)(=O)=O)c1)CC1OCC(CC2OC2C(C)C(C)O)C(O)C1O (stereo not drawn) [Example 7, m-Methylsulfonylbenzyl monate A]', 'MIC', '5 µg/mL');
